These measurements were taken from patent US6602881B2.

tested on: LPS activated BMΦ (rat microglia); assay: Assay for BMΦ O2− generation (SOD-inhibitable reduction of ferricytochrome C), PMA-stimulated, LPS-activated BMΦ; assay type: cell-based; details: Microglia; PMA (1 μM)-stimulated O2− release from LPS (0.3 ng/ml, 17 h)-activated rat BMΦ; manzamine 20 min preincubation + 70 min
pIC50: −log10 of the molar value.

[
  {
    "compound": "C1=C\\CC[C@]23CN4CCCC/C=C\\CC[C@@]5(OC5[C@@H](c5nccc6c5[nH]c5ccccc56)[C@@H]2CC4)[C@@H]3NCCCC/1 (some centres unmarked)",
    "system-tested": "LPS activated BMΦ (rat microglia)",
    "pIC50": "~5.30"
  },
  {
    "compound": "C1=C\\CCCCN(CCc2nccc3c2[nH]c2ccccc23)CCCC/1",
    "system-tested": "LPS activated BMΦ (rat microglia)",
    "pIC50": "~5.30"
  },
  {
    "compound": "O[C@]12C=C(C3NCCc4c3[nH]c3ccccc43)[C@@H]3CCN(CCCC/C=C\\CC1)C[C@@]31CC3/C=C\\CCCCN3[C@H]12 (some centres unmarked)",
    "system-tested": "LPS activated BMΦ (rat microglia)",
    "pIC50": "~6.30"
  },
  {
    "compound": "O=C1CCCN2C(CC1)C[C@]13CN4CCCC/C=C\\CC[C@](O)(C=C(c5nccc6c5[nH]c5ccccc56)[C@@H]1CC4)[C@H]23 (some centres unmarked)",
    "system-tested": "LPS activated BMΦ (rat microglia)",
    "pIC50": "< 5.00"
  },
  {
    "compound": "O=C1CCCN2[C@@H](CC1)C[C@]13CN4CCCC/C=C\\CC[C@](O)(C=C(c5nccc6c5[nH]c5c(O)cccc56)C1CC4)[C@H]23 (some centres unmarked)",
    "system-tested": "LPS activated BMΦ (rat microglia)",
    "pIC50": "< 5.00"
  }
]

----------
biological target: LPS activated BMΦ (rat microglia); assay: LDH assay (lactate dehydrogenase release, BMΦ viability); type: cell-based; details: LDH release (toxicity) from LPS-activated rat BMΦ, same supernates

[
  {
    "compound": "O[C@]12C=C(c3nccc4c3[nH]c3ccccc34)[C@@H]3CCN(CCCC/C=C\\CC1)C[C@@]31C[C@@H]3/C=C\\CCCCN3[C@H]12 [Manzamine A, manzamine A]",
    "IC50": "> 30 µM"
  }
]
